assay.info: Phase 1 dose escalation study, pharmacokinetics
Type: in vivo, human
test.context: human, in vivo, po, 1000 mg/m2, b.i.d. 1000 mg/m^2 oral on a single day, 5 patients; SD 12.5%; read-out: Mean oral bioavailability
endpoint: bioavailability (%)
Number in %, nothing else.

For this compound ( `O=C(/C=C/c1cccc(S(=O)(=O)Nc2ccccc2)c1)NO` ), measured bioavailability is 42.8

----------
assay.info: Phase 1 dose escalation study, pharmacokinetics
Assay type: in vivo, human
test.context: human, in vivo, po, oral single dose; read-out: Mean single dose oral bioavailability
endpoint: bioavailability (%)
Number in %, nothing else.

For this compound ( `O=C(/C=C/c1cccc(S(=O)(=O)Nc2ccccc2)c1)NO` ), measured bioavailability is 33

----------
assay.info: Phase 1 dose escalation study, pharmacokinetics
Assay type: in vivo, human
test.context: human, in vivo, intravenous, one patient outside the range; read-out: t1/2, one patient (converted)
endpoint: half-life (h)
Number in h, nothing else.

For this compound ( `O=C(/C=C/c1cccc(S(=O)(=O)Nc2ccccc2)c1)NO` ), measured half-life is 1.8

----------
assay.info: Phase 1 dose escalation study, pharmacokinetics
Type: in vivo, human
test.context: human, in vivo, po, 1000 mg/m2, t.i.d. 1000 mg/m^2 oral on a single day, 2 patients
endpoint: Cmax

For this compound ( O=C(/C=C/c1cccc(S(=O)(=O)Nc2ccccc2)c1)NO [PXD-101] ), measured Cmax is 1300 to 1800 ng/mL

----------
Test system: L-363 plasma cell leukemia cell line
assay.info: CellTiter-Glo cell viability assay
Assay type: cell-based
test.context: Homo sapiens, 72 h, read-out: PXD-101 IC50
endpoint: IC50 (nM)
Number in nM, nothing else.

For this molecule ( `O=C(/C=C/c1cccc(S(=O)(=O)Nc2ccccc2)c1)NO` ), measured IC50 is 100

----------
assay.info: Phase 1 dose escalation study, pharmacokinetics
Type: in vivo, human
test.context: human, in vivo, po, 1000 mg/m2, b.i.d. 1000 mg/m^2 oral on a single day, 5 patients; read-out: t1/2
endpoint: half-life

For this compound ( `O=C(/C=C/c1cccc(S(=O)(=O)Nc2ccccc2)c1)NO` ), measured half-life is 1.5 to 2 h

----------
assay.info: Phase 1 dose escalation study, pharmacokinetics
Type: in vivo, human
test.context: human, in vivo, po, 1000 mg/m2, t.i.d. 1000 mg/m^2 oral on a single day, 2 patients; read-out: t1/2
endpoint: half-life

For this compound ( `O=C(/C=C/c1cccc(S(=O)(=O)Nc2ccccc2)c1)NO` ), measured half-life is 2 to 2.6 h

----------
assay.info: Phase 1 dose escalation study, pharmacokinetics
Type: in vivo, human
test.context: human, in vivo, iv, patients, IV infusion; read-out: Terminal elimination half-life
endpoint: half-life

For this compound ( `O=C(/C=C/c1cccc(S(=O)(=O)Nc2ccccc2)c1)NO` ), measured half-life is 30 to 60 min

These data points were gathered from patent US9980957B2.
